The following compounds have recorded IC50 on Trypsin (Bos taurus, UniProt P00760).
Numbers only, in µM.

For orientation, consider the following solved cases.
• N=C(NCCO)Nc1ccc(C(=O)Oc2ccc3cc(C(=N)N)ccc3c2)cc1 = 2
• CC(=O)NCCNC(=N)Nc1ccc(C(=O)Oc2ccc3cc(C(=N)N)ccc3c2)cc1 = 4
• CN1CCNC1=Nc1ccc(C(=O)Oc2ccc3cc(C(=N)N)ccc3c2)cc1 = 0.3

Shift focus to the following entry.
I would be grateful if you could share the reported IC50 for "CN(C)C(=N)Nc1ccc(C(=O)Oc2ccc3cc(C(=N)N)ccc3c2)cc1" .
6

----------
tested on: complement mediated hemolysis; experiment: Inhibition of complement mediated hemolysis; format: cell-based; details: 1 × 10^-6
With a cut-off of 70%, any Inhibition of complement mediated hemolysis (%) strictly below it is called true (1); any Inhibition of complement mediated hemolysis (%) meeting it or above is called false (0).

- CNC(=N)Nc1ccc(C(=O)Oc2ccc3cc(C(=N)N)ccc3c2)cc1: false (0)
- CCCCNC(=N)Nc1ccc(C(=O)Oc2ccc3cc(C(=N)N)ccc3c2)cc1: false (0)
- N=C(N)c1ccc2cc(OC(=O)c3ccc(Nc4ncc[nH]4)cc3)ccc2c1: true (1)

Determine if "N=C(NCCO)Nc1ccc(C(=O)Oc2ccc3cc(C(=N)N)ccc3c2)cc1" shows Inhibition of complement mediated hemolysis (%) strictly lower than 70%.
true (1)

----------
test system: Kallikrein; experiment: Anti-kallikrein activity (inhibition of TAME hydrolysis); format: biochemical; conditions: read-out: ID50, Kallikrein
pIC50: −log10 of the molar value.
Think of 6 as a floor: if pIC50 stands on it or above, it is Satisfied; beneath it, Not satisfied.

Please check the record "N=C(NCCOCc1ccccc1)Nc1ccc(C(=O)Oc2ccc3cc(C(=N)N)ccc3c2)cc1" and state if its pIC50 is at or above 6.
Not satisfied

Determine whether this molecule has pIC50 no lower than 6: "N=C(N)c1ccc2cc(OC(=O)c3ccc(NC4=NCCCN4)cc3)ccc2c1"
Satisfied

Can "CN1CCNC1=Nc1ccc(C(=O)Oc2ccc3cc(C(=N)N)ccc3c2)cc1" be said to have pIC50 at or above 6?
Satisfied

----------
biological target: Thrombin (Homo sapiens, UniProt P00734)
Provide the reported IC50 of each item.
Numbers only, in nM.

- N=C(NCCOCc1ccccc1)Nc1ccc(C(=O)Oc2ccc3cc(C(=N)N)ccc3c2)cc1: 5000
- CCCCNC(=N)Nc1ccc(C(=O)Oc2ccc3cc(C(=N)N)ccc3c2)cc1: 1000
- CCNC(=N)Nc1ccc(C(=O)Oc2ccc3cc(C(=N)N)ccc3c2)cc1: 6000
- CN1CCNC1=Nc1ccc(C(=O)Oc2ccc3cc(C(=N)N)ccc3c2)cc1: 800
- CC1CNC(Nc2ccc(C(=O)Oc3ccc4cc(C(=N)N)ccc4c3)cc2)=N1 (stereo not drawn): 2000
- N=C(N)c1ccc2cc(OC(=O)c3ccc(Nc4ncc[nH]4)cc3)ccc2c1: 6000
- N=C(N)c1ccc2cc(OC(=O)c3ccc(NC4=NCCCN4)cc3)ccc2c1: 2000
- N=C(NCCO)Nc1ccc(C(=O)Oc2ccc3cc(C(=N)N)ccc3c2)cc1: 1000

Turning to the following molecule.
Any idea what its IC50 is? The molecule is "CN=C(NC)Nc1ccc(C(=O)Oc2ccc3cc(C(=N)N)ccc3c2)cc1"
9000

----------
Target protein (sequence): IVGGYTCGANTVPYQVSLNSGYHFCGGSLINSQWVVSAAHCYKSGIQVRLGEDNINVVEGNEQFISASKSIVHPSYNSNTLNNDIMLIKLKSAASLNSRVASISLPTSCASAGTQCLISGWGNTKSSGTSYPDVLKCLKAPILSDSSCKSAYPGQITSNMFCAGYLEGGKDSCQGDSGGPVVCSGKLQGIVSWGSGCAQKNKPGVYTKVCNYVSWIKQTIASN
I'd be grateful if you could share measured pIC50 for these entries.
Numbers only, as −log10 of the molar value.

Field: example entries. Status: answers known.
- CCCCNC(=N)Nc1ccc(C(=O)Oc2ccc3cc(C(=N)N)ccc3c2)cc1: 5.70
- CN=C(NC)Nc1ccc(C(=O)Oc2ccc3cc(C(=N)N)ccc3c2)cc1: 5.00

For each listed entry, give its pIC50.
1. N=C(N)c1ccc2cc(OC(=O)c3ccc(NC4=NCCN4)cc3)ccc2c1
2. N=C(N)c1ccc2cc(OC(=O)c3ccc(NC4=NCCCN4)cc3)ccc2c1

1. 6.00
2. 5.22

----------
tested on: complement mediated hemolysis; assay: Inhibition of complement mediated hemolysis; assay type: cell-based; details: 1 × 10^-5
observable: Inhibition of complement mediated hemolysis (%)

Examples from the recorded data:
- N=C(N)c1ccc2cc(OC(=O)c3ccc(NC4=NCCCN4)cc3)ccc2c1: 98%
- CN1CCNC1=Nc1ccc(C(=O)Oc2ccc3cc(C(=N)N)ccc3c2)cc1: 93%
- N=C(NCCO)Nc1ccc(C(=O)Oc2ccc3cc(C(=N)N)ccc3c2)cc1: 96%
- N=C(N)c1ccc2cc(OC(=O)c3ccc(NC4=NC5CCCCC5N4)cc3)ccc2c1 (stereo not shown): 100%
- CCNC(=NC)Nc1ccc(C(=O)Oc2ccc3cc(C(=N)N)ccc3c2)cc1: 100%

Items follow; give Inhibition of complement mediated hemolysis (%) for each.
1. CN=C(NC)Nc1ccc(C(=O)Oc2ccc3cc(C(=N)N)ccc3c2)cc1
2. CCNC(=N)Nc1ccc(C(=O)Oc2ccc3cc(C(=N)N)ccc3c2)cc1
3. N=C(NCCOCc1ccccc1)Nc1ccc(C(=O)Oc2ccc3cc(C(=N)N)ccc3c2)cc1
4. N=C(N)c1ccc2cc(OC(=O)c3ccc(Nc4ncc[nH]4)cc3)ccc2c1
5. CCCCNC(=N)Nc1ccc(C(=O)Oc2ccc3cc(C(=N)N)ccc3c2)cc1

["97%", "100%", "100%", "96%", "100%"]

Provide each entry's Inhibition of complement mediated hemolysis (%) from the list below.
1. CC(=O)NCCNC(=N)Nc1ccc(C(=O)Oc2ccc3cc(C(=N)N)ccc3c2)cc1
2. N=C(N)c1ccc2cc(OC(=O)c3ccc(NC4=NCCN4)cc3)ccc2c1
3. CCN=C(NCC)Nc1ccc(C(=O)Oc2ccc3cc(C(=N)N)ccc3c2)cc1

1. 100%
2. 100%
3. 100%

----------
assay: Toxicity (median lethal dose); details: in vivo, iv; mouse, I.V.
observable: LD50
The answer consists of two parts: a number and, after it, its unit.

Could you share which LD50 value was measured for "N=C(N)c1ccc2cc(OC(=O)c3ccc(NC4=NCCN4)cc3)ccc2c1" ?
19 mg/kg

----------
target: C1r (Homo sapiens, UniProt P00736); assay: Anti-C1r activity (inhibition of AAME hydrolysis); format: biochemical; details: at 1×10^-5 M; read-out: percent inhibition, C1r (figure in parentheses)
Sequence (P00736 18-463 limits assumed): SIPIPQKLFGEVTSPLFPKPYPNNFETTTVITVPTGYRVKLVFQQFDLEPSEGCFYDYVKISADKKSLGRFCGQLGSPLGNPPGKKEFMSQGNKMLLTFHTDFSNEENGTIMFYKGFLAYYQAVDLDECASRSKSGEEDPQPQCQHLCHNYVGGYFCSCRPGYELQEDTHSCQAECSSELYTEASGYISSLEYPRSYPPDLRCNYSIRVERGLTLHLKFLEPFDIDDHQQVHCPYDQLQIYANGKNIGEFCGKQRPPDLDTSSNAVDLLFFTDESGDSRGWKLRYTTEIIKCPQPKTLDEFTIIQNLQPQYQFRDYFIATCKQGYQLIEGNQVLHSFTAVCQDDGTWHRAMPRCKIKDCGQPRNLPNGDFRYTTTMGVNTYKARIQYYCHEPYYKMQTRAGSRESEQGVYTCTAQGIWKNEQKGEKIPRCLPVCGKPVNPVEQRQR
Sequence (P00736 464-705 limits assumed): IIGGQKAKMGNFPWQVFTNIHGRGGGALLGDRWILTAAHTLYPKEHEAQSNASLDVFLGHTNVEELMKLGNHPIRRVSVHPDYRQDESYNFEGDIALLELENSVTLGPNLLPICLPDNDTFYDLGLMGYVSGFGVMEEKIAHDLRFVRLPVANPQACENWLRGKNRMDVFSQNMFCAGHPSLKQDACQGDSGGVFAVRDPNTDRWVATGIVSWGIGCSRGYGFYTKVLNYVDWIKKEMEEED
observable: inhibition at 10 µM (%)
Numbers only, in %.

Reference set, count: 5
- CN=C(NC)Nc1ccc(C(=O)Oc2ccc3cc(C(=N)N)ccc3c2)cc1: 32
- CCN=C(NCC)Nc1ccc(C(=O)Oc2ccc3cc(C(=N)N)ccc3c2)cc1: 24
- CCNC(=NC)Nc1ccc(C(=O)Oc2ccc3cc(C(=N)N)ccc3c2)cc1: 24
- CCNC(=N)Nc1ccc(C(=O)Oc2ccc3cc(C(=N)N)ccc3c2)cc1: 48
- N=C(NCCOCc1ccccc1)Nc1ccc(C(=O)Oc2ccc3cc(C(=N)N)ccc3c2)cc1: 37

Could you report inhibition at 10 µM for every entry in the following list?
1. N=C(N)c1ccc2cc(OC(=O)c3ccc(NC4=NCCCN4)cc3)ccc2c1
2. N=C(N)c1ccc2cc(OC(=O)c3ccc(NC4=NCCN4)cc3)ccc2c1
3. CN(C)C(=N)Nc1ccc(C(=O)Oc2ccc3cc(C(=N)N)ccc3c2)cc1
4. CNC(=N)Nc1ccc(C(=O)Oc2ccc3cc(C(=N)N)ccc3c2)cc1
5. CN1CCNC1=Nc1ccc(C(=O)Oc2ccc3cc(C(=N)N)ccc3c2)cc1
6. CC(=O)NCCNC(=N)Nc1ccc(C(=O)Oc2ccc3cc(C(=N)N)ccc3c2)cc1

1. 41
2. 35
3. 41
4. 47
5. 38
6. 35

Fill blank: measured inhibition at 10 µM of the compound "CCCCNC(=N)Nc1ccc(C(=O)Oc2ccc3cc(C(=N)N)ccc3c2)cc1" is ____.
46

----------
tested on: complement mediated hemolysis; assay: Inhibition of complement mediated hemolysis; assay type: cell-based; settings: 1 × 10^-6
Returns: string. Value is 1 (yes) if measured Inhibition of complement mediated hemolysis (%) is below 60%, and 0 (no) if it is greater than or equal to it.

• N=C(N)c1ccc2cc(OC(=O)c3ccc(NC4=NCCCN4)cc3)ccc2c1 = 0 (no)
• N=C(NCCOCc1ccccc1)Nc1ccc(C(=O)Oc2ccc3cc(C(=N)N)ccc3c2)cc1 = 0 (no)
• N=C(N)c1ccc2cc(OC(=O)c3ccc(NC4=NC5CCCCC5N4)cc3)ccc2c1 (stereo not shown) = 0 (no)
• CCNC(=NC)Nc1ccc(C(=O)Oc2ccc3cc(C(=N)N)ccc3c2)cc1 = 1 (yes)
• CN1CCNC1=Nc1ccc(C(=O)Oc2ccc3cc(C(=N)N)ccc3c2)cc1 = 1 (yes)

Now look at this entry.
For "CN(C)C(=N)Nc1ccc(C(=O)Oc2ccc3cc(C(=N)N)ccc3c2)cc1" , is the recorded Inhibition of complement mediated hemolysis (%) below the cut-off of 60%?
0 (no)
